Values compiled from the supplement of paper PMC8671470.

test system: KG-1; experiment: cell viability (% survival relative to DMSO control, bortezomib = 0%); higher = less cytotoxic; details: 10 nM; 72 h
reported endpoint: cell viability

[[record]]
compound = "C1CCC(C(CC2CCCCN2)C2CCCCC2)CC1.O=C(O)/C=C\\C(=O)O (stereo not drawn)"
obs_value = "85.2%"

[[record]]
compound = "O=C1Oc2ccccc2C(=O)C1CC1C(=O)Oc2ccccc2C1=O (stereo not drawn)"
obs_value = "105%"


Entry O=C(c1ccc(OCCN2CCCCC2)cc1)c1c(-c2ccc(O)cc2)sc2cc(O)ccc12 , cell viability reported as 90.6%

----------
test system: myeloid leukemia patient primary cells Pat.13; assay: cell viability (% survival relative to DMSO control); higher = less cytotoxic; settings: 1000 nM; 72 h
What cell viability was measured for each of the following?
Numbers only, in %.

Solved cases (3 shown):
[[record]]
compound = "CC12CCC(O)CC1CCC1C2CCC2(C)C(C3=CC(=O)OC3)CCC12O (centres undefined)"
obs_value = 15

[[record]]
compound = "Sc1ncnc2nc[nH]c12"
obs_value = 84.9

[[record]]
compound = "CC(Cc1ccc(O)c(O)c1)C(C)Cc1ccc(O)c(O)c1 (centres undefined)"
obs_value = 70.5


In the following, a different compound is considered.
Entry C[C@]12O[C@H](C[C@]1(O)CO)n1c3ccccc3c3c4c(c5c6ccccc6n2c5c31)CNC4=O , cell viability reported as 57.7

----------
What cell viability was measured for each of the following?
tested on: KCL-22; assay: cell viability (% survival relative to DMSO control, bortezomib = 0%); higher = less cytotoxic; conditions: 10000 nM; 72 h
Answers are plain numbers, in %.

Solved cases (4 shown):
[[record]]
molecule = "NC(=O)c1ncn([C@@H]2O[C@H](CO)[C@@H](O)[C@H]2O)n1"
tested_system = "KCL-22"
reported_endpoint = "cell viability"
quantity_unit = "%"
obs_value = 103

[[record]]
molecule = "CC(Cc1ccc(O)c(O)c1)C(C)Cc1ccc(O)c(O)c1 (stereo not given)"
tested_system = "KCL-22"
reported_endpoint = "cell viability"
quantity_unit = "%"
obs_value = 66.2

[[record]]
molecule = "COc1c(C)c2c(c(O)c1C/C=C(\\C)CCC(=O)O)C(=O)OC2"
tested_system = "KCL-22"
reported_endpoint = "cell viability"
quantity_unit = "%"
obs_value = 8.9

[[record]]
molecule = "OCCN1CCN(CCCN2c3ccccc3Sc3ccc(Cl)cc32)CC1"
tested_system = "KCL-22"
reported_endpoint = "cell viability"
quantity_unit = "%"
obs_value = 39.6


Entry Clc1ccc2c(c1Cl)CNCC2 , cell viability reported as 91.5

----------
test system: SHI-1; experiment: cell viability (% survival relative to DMSO control, bortezomib = 0%); higher = less cytotoxic; conditions: 10 nM; 72 h
reported endpoint: cell viability
// return the numeric value with its unit appended

Solved cases (3 shown):
[[record]]
compound = "Nc1ncnc2c1ncn2[C@@H]1O[C@H](CSCC[C@H](N)C(=O)O)[C@@H](O)[C@H]1O"
tested_system = "SHI-1"
obs_value = "122%"

[[record]]
compound = "Cc1c(-c2ccccc2)oc2c(C(=O)OCCN3CCCCC3)cccc2c1=O.Cl [Flavoxate]"
tested_system = "SHI-1"
obs_value = "99.6%"

[[record]]
compound = "O=C(O)CC[C@H](NC(=O)c1ccc([N+](=O)[O-])cc1)C(=O)O [(S)-2-(4-Nitrobenzamido)pentanedioic acid]"
tested_system = "SHI-1"
obs_value = "107%"


Would you be so kind as to report cell viability for each listed record?
1. O=P(O)(O)C(O)(Cn1ccnc1)P(=O)(O)O
2. COc1c(C)c2c(c(O)c1C/C=C(\C)CCC(=O)O)C(=O)OC2

116%
104%

Entry Cc1ccc(S(=O)(=O)NC2c3ccccc3Oc3ccccc32)cc1 , cell viability reported as 110%

----------
test system: myeloid leukemia patient primary cells Pat.7; assay: cell viability (% survival relative to DMSO control); higher = less cytotoxic; settings: 10000 nM; 72 h
reported endpoint: cell viability (%)
One number for each entry, in %.

Solved cases (3 shown):
[[record]]
compound = "Cc1noc2c1-c1ccccc1C(c1ccc(Cl)cc1)=N[C@H]2CC(N)=O"
obs_value = 58

[[record]]
compound = "Sc1ncnc2nc[nH]c12"
obs_value = 88.8

[[record]]
compound = "Nc1ccn([C@@H]2O[C@H](CO)[C@@H](O)[C@@H]2O)c(=O)n1"
obs_value = 4.95


Query CC(Cc1ccc(O)c(O)c1)C(C)Cc1ccc(O)c(O)c1 (configuration not stated) on myeloid leukemia patient primary cells Pat.7; cell viability returned: 2.01

----------
system: myeloid leukemia patient primary cells Pat.15; experiment: cell viability (% survival relative to DMSO control); higher = less cytotoxic; conditions: 10 nM; 72 h
reported endpoint: cell viability

Solved cases (4 shown):
[[record]]
compound = "Sc1ncnc2nc[nH]c12 [6-mercaptopurine]"
reported_endpoint = "cell viability"
obs_value = "> 100%"

[[record]]
compound = "Cc1noc2c1-c1ccccc1C(c1ccc(Cl)cc1)=N[C@H]2CC(N)=O [CPI-0610]"
reported_endpoint = "cell viability"
obs_value = "94.6%"

[[record]]
compound = "CC(Cc1ccc(O)c(O)c1)C(C)Cc1ccc(O)c(O)c1 (stereo not given) [Masoprocol]"
reported_endpoint = "cell viability"
obs_value = "93.8%"

[[record]]
compound = "CC12CCC(O)CC1CCC1C2CCC2(C)C(C3=CC(=O)OC3)CCC12O (stereo not given) [Digitoxigenin]"
reported_endpoint = "cell viability"
obs_value = "92.9%"


In the following, a different compound is considered.
Entry CCOC(=O)N1c2ccc(C(F)(F)F)cc2[C@@H](N(Cc2cc(C(F)(F)F)cc(C(F)(F)F)c2)C(=O)OC)C[C@H]1CC [Torcetrapib] , cell viability reported as 86%

----------
system: myeloid leukemia patient primary cells Pat.6; assay: cell viability (% survival relative to DMSO control); higher = less cytotoxic; conditions: 1 nM; 72 h
What cell viability was measured for each of the following?
Give bare numbers, in %.

Solved cases (2 shown):
[[record]]
compound = "C[C@]12O[C@H](C[C@]1(O)CO)n1c3ccccc3c3c4c(c5c6ccccc6n2c5c31)CNC4=O [Lestaurtinib]"
reported_endpoint = "cell viability"
obs_value = 87.2

[[record]]
compound = "Sc1ncnc2nc[nH]c12 [6-mercaptopurine]"
reported_endpoint = "cell viability"
obs_value = 89.3


Entry CC12CCC(O)CC1CCC1C2CCC2(C)C(C3=CC(=O)OC3)CCC12O (centres undefined) [Digitoxigenin] , cell viability reported as 99.7

----------
What cell viability was measured for each of the following?
test system: NOMO-1; assay: cell viability (% survival relative to DMSO control, bortezomib = 0%); higher = less cytotoxic; conditions: 100 nM; 72 h
// return the numeric value with its unit appended

[[record]]
compound = "C1CCC(C(CC2CCCCN2)C2CCCCC2)CC1.O=C(O)/C=C\\C(=O)O (centres undefined) [Perhexiline]"
obs_value = "88.7%"

[[record]]
compound = "Cc1ccc(S(=O)(=O)NC2c3ccccc3Oc3ccccc32)cc1 [AH-7614]"
obs_value = "104%"

[[record]]
compound = "Clc1ccc2c(c1Cl)CNCC2"
obs_value = "101%"


Would you be so kind as to report cell viability for each listed record?
1. Nc1ccn([C@@H]2O[C@H](CO)[C@@H](O)[C@@H]2O)c(=O)n1 [Cytarabine]
2. CC(C(=O)O)C(=O)O [Methylmalonate]
3. O=P(O)(O)C(O)(Cn1ccnc1)P(=O)(O)O [Zoledronic acid]
4. C[C@]12O[C@H](C[C@]1(O)CO)n1c3ccccc3c3c4c(c5c6ccccc6n2c5c31)CNC4=O [Lestaurtinib]
5. CC(Cc1ccc(O)c(O)c1)C(C)Cc1ccc(O)c(O)c1 (centres undefined) [Masoprocol]

1. 89.6%
2. 97.2%
3. 95.6%
4. 68.1%
5. 101%

Entry O=C(O)c1nn(Cc2ccc(Cl)cc2Cl)c2ccccc12 [Lonidamine] , cell viability reported as 107%

----------
test system: ML-2; assay: cell viability (% survival relative to DMSO control, bortezomib = 0%); higher = less cytotoxic; conditions: 10 nM; 72 h
What cell viability was measured for each of the following?
Answers are plain numbers, in %.

Solved cases (2 shown):
[[record]]
compound = "Sc1ncnc2nc[nH]c12 [6-mercaptopurine]"
obs_value = 91.3

[[record]]
compound = "C[C@]12O[C@H](C[C@]1(O)CO)n1c3ccccc3c3c4c(c5c6ccccc6n2c5c31)CNC4=O [Lestaurtinib]"
obs_value = 84.4


Would you be so kind as to report cell viability for each listed record?
1. O=C(O)C(S)=Cc1c[nH]c2ccc(F)cc12
2. CC12CCC(O)CC1CCC1C2CCC2(C)C(C3=CC(=O)OC3)CCC12O (stereo not given) [Digitoxigenin]
3. Nc1ccn([C@@H]2O[C@H](CO)[C@@H](O)[C@@H]2O)c(=O)n1 [Cytarabine]

1: 98.6; 2: 97.5; 3: 98.5
